Numbers sourced from the METLIN SMRT retention time set (Domingo-Almenara et al. 2019).

- EXPERIMENT_SUMMARY: gradient 5% acetonitrile 3 min, to 50% in 2 min, to 85% in 15 min, held 3 min, 100 µL/min
- MEASUREMENT_CONDITIONS: column: Zorbax Extend-C18 2.1 x 50 mm; eluents: water / acetonitrile, 0.1% formic acid
Item-by-item account of RP-LC retention time
Please reply with the bare figure in s and do not write the unit itself.

Solved cases below.
CN1C(=O)c2cc(C(=O)NCCCN3CCc4ccccc4C3)nn2CC1(C)C(=O)NC1CCCC1 (stereo unspecified)
623
Cc1ccc2c(Nc3cccc(C(C)C)c3)c(C(=O)N3CCCC(C)C3)cnc2n1 (stereo unspecified)
722
COc1ccc(-c2cn3cccnc3n2)cc1NC(=O)c1ccccc1F
706
COc1ccccc1CNC(=O)C1CCCN1S(=O)(=O)c1cc2c(cc1C)NC(=O)C(C)O2 (stereo unspecified)
757
CNC(=O)[C@@H]1CN(S(=O)(=O)C(C)C)C[C@H]1COC
579

QUERY: For the compound "Cc1nc2cc(-c3noc(COc4ccccc4)n3)ccc2o1" , give its measured RP-LC retention time value.
RESULT: 1030

QUERY: Provide only the value of recorded RP-LC retention time for "CN(C)CCn1nnc2cc(-c3noc(-c4ccc(F)cc4)n3)ccc21"
RESULT: 651

QUERY: Identify the reported RP-LC retention time for the following entry. "COc1ccc(OCc2nn3c(-c4ccc(OC)cc4)nnc3s2)cc1"
RESULT: 947

QUERY: Supply measured RP-LC retention time of "Cc1cccc(NC(=O)N2CC(Cc3nncn3C(C)C)C2)c1C" in your reply.
RESULT: 627

QUERY: Provide measured RP-LC retention time value, entry: "CC1(C)CC(O)CC(C)(C)N1[O-]"
RESULT: 578

* * *

- EXPERIMENT_SUMMARY: gradient 5% acetonitrile 3 min, to 50% in 2 min, to 85% in 15 min, held 3 min, 100 µL/min
- MEASUREMENT_CONDITIONS: column: Zorbax Extend-C18 2.1 x 50 mm; eluents: water / acetonitrile, 0.1% formic acid
QUANTITY_NAME: RP-LC retention time

Please review the following examples before continuing.
CC(C)(C)c1csc(-c2csc(S(=O)(=O)N3CCCCCC3)c2)n1
1340 s
O=C(Nc1ccc(F)c(F)c1)c1c(O)c2cccnc2n(-c2cccc(F)c2)c1=O
1260 s

QUERY: State, in one line, measured RP-LC retention time of "Clc1ccc(OCc2nn3c(CSc4ccccc4)nnc3s2)cc1"
RESULT: 1040 s

* * *

- EXPERIMENT_SUMMARY: gradient 5% acetonitrile 3 min, to 50% in 2 min, to 85% in 15 min, held 3 min, 100 µL/min
- MEASUREMENT_CONDITIONS: column: Zorbax Extend-C18 2.1 x 50 mm; eluents: water / acetonitrile, 0.1% formic acid
QUANTITY_NAME: RP-LC retention time (s)
Express the result in s but write the number alone.

COCc1noc([C@@H]2CN(C(=O)CC3CCCC3)C[C@H]2CO)n1
670
COc1ccc(-c2noc(C3CCCN3C(=O)c3ccc(C)c(F)c3)n2)cc1 (stereo not drawn)
1040
O=C1COc2ccc(S(=O)(=O)N3CCC(C(=O)NCc4cccs4)CC3)cc2N1
702
Cc1ccc(C2c3cc(OCC(=O)N4CCCC4)ccc3CCN2C(=O)C2CC2)cc1 (stereo not drawn)
824

QUERY: Name the recorded RP-LC retention time of the compound listed here: Cc1ccc(S(=O)(=O)n2ccn(C(=O)C(C)Oc3ccccc3)c2=O)cc1 (stereo not drawn)
RESULT: 712

QUERY: Give reported RP-LC retention time value for "COC(=O)c1ccc2c(=O)n(-c3ccccc3)c(N3CCN(c4ccccn4)CC3)nc2c1"
RESULT: 684

QUERY: Tell me measured RP-LC retention time for CCC1CN2C=NC(N3CCN(C(=O)c4ccoc4)CC3)=CC2=N1 (stereo not drawn) please.
RESULT: 575

QUERY: Identify measured RP-LC retention time corresponding to COc1ccc(-c2noc(C3CCCN3C(=O)Nc3cccc(C)c3C)n2)cc1 (stereo not drawn)
RESULT: 858

QUERY: Tell me measured RP-LC retention time for "Cc1ccc2[nH]c(C(N)=O)c(N3CCCC3=O)c2c1" please.
RESULT: 646

QUERY: Output measured RP-LC retention time for this item: NC(=O)C1CCN(C2CC(=O)N(Cc3ccccc3)C2=O)CC1 (stereo not drawn)
RESULT: 579

QUERY: Give the value of RP-LC retention time reported for the following: "Cc1ccc(-n2c(=O)n(C)c(=O)c3cc(C(=O)Nc4ccccc4C(N)=O)cnc32)cc1"
RESULT: 857

QUERY: Supply RP-LC retention time value. Item: "CCN(CC)C(=O)Cn1c(CO)nc2ccccc21"
RESULT: 563

QUERY: // fetch RP-LC retention time given entry "Cc1ccn2c(Nc3ccc4c(c3)OCCO4)c(-c3ccccc3)nc2c1"
RESULT: 690

QUERY: Dear colleague, please send me the reported RP-LC retention time for "CS(=O)(=O)N1C[C@@H](COc2ccncc2)[C@H](c2ccccn2)C1" when you can.
RESULT: 542

QUERY: Indicate its recorded RP-LC retention time; the compound in question is "CCCCOc1ccc(CNC(=O)CN2CC=C(c3cnn(-c4ccccc4)c3)CC2)cc1"
RESULT: 826

* * *

Items are presented alongside their recorded RP-LC retention time.
- EXPERIMENT_SUMMARY: gradient 5% acetonitrile 3 min, to 50% in 2 min, to 85% in 15 min, held 3 min, 100 µL/min
- MEASUREMENT_CONDITIONS: column: Zorbax Extend-C18 2.1 x 50 mm; eluents: water / acetonitrile, 0.1% formic acid
Returns: string containing the number followed by the unit.

Some compounds with known RP-LC retention time results, for comparison:
O=C(Nc1cnn(-c2ncc(N3CCCCC3)cn2)c1)c1ccccn1
814 s
O=C1CCCc2cc(S(=O)(=O)NCCc3ccc(Cl)cc3)ccc2N1
800 s

# next compound below
QUERY: Fill in RP-LC retention time for record "CCCC(=O)Nc1cc2c(cc1S(=O)(=O)c1ccccc1)n(CC)c(=O)n2CC"
RESULT: 883 s

* * *

- EXPERIMENT_SUMMARY: gradient 5% acetonitrile 3 min, to 50% in 2 min, to 85% in 15 min, held 3 min, 100 µL/min
- MEASUREMENT_CONDITIONS: column: Zorbax Extend-C18 2.1 x 50 mm; eluents: water / acetonitrile, 0.1% formic acid
QUANTITY_NAME: RP-LC retention time (s)
State the answer as a number, implicitly in s.

Look over these answered cases.
CC(C)Cc1cc(-c2nn3c(Cc4ccccc4)nnc3s2)n[nH]1
910
O=S(=O)(c1cccc2cccnc12)N1CCCn2nc(-c3cccs3)cc2C1
900
Cc1ccc(-c2nc3c(C)cccn3c2Nc2ccc3c(c2)OCCO3)cc1
721

QUERY: Give the reported RP-LC retention time for this compound. "O=C(Cn1cccc(-c2nc(-c3ccc(F)cc3)no2)c1=O)Nc1ccc(F)cc1"
RESULT: 878

QUERY: Respond only with RP-LC retention time recorded for "CCCn1cnc2cc(CNC(=O)c3ccc(Cl)c(Cl)c3)ccc21"
RESULT: 683

QUERY: Quick one: give measured RP-LC retention time for "CCc1nnc([C@@H]2CC(F)(F)CN2C(=O)c2cc(C)no2)o1"
RESULT: 686

* * *

- EXPERIMENT_SUMMARY: gradient 5% acetonitrile 3 min, to 50% in 2 min, to 85% in 15 min, held 3 min, 100 µL/min
- MEASUREMENT_CONDITIONS: column: Zorbax Extend-C18 2.1 x 50 mm; eluents: water / acetonitrile, 0.1% formic acid
Mark 1 for reported RP-LC retention time of 900 s or greater; mark 0 for anything smaller.

Field: example entries. Status: answers known.
COCCNC(=O)c1ccc(-n2nc(Sc3ccc(Cl)cc3)ccc2=O)cc1
0
O=C1CCCC(=O)N1CCS(=O)(=O)Nc1ccc(Cl)c(N2CCCS2(=O)=O)c1
0
COC1CN(C2CCN(C(=O)c3cccs3)CC2)C12CCOCC2 (centres undefined)
0
O=C(NC1CC1)[C@@H]1C[C@H](Oc2ccccc2)CN1C(=O)CCCc1c[nH]c2ccccc12
0

Consider the additional molecule presented here.
QUERY: Exam item: decide whether the reported RP-LC retention time for "COc1ccc(Cc2nc(-c3cccc(-c4ccn[nH]4)c3)no2)cc1Cl" is at least 900 s.
RESULT: 1

* * *

- EXPERIMENT_SUMMARY: gradient 5% acetonitrile 3 min, to 50% in 2 min, to 85% in 15 min, held 3 min, 100 µL/min
- MEASUREMENT_CONDITIONS: column: Zorbax Extend-C18 2.1 x 50 mm; eluents: water / acetonitrile, 0.1% formic acid
RP-LC retention time by entry:
Numeric only. Scale: s

Guide cases for RP-LC retention time, answers given:
CN(Cc1ccccc1)C(=O)c1cn(-c2cc(-c3nc(C(C)(C)C)no3)ccn2)cn1
1050
O=C(NCCCn1cccn1)C1CN(S(=O)(=O)c2ccccc2)CC12CCCCC2 (centres undefined)
819
FC(F)(F)c1ccccc1-n1ccnc1
633
CCOc1ccccc1CNC(=O)Cn1c(CC)nc2onc(C)c2c1=O
865
Cc1ccc(Cl)cc1NC(=O)C1CCCN1S(=O)(=O)c1cc2c(cc1C)NC(=O)C(C)O2 (centres undefined)
892
CCOC(=O)c1nc(NCc2ccc(Cl)cc2)c2ccccc2n1
868
CCCn1c(C)cnc1C1CN(S(=O)(=O)c2cccc3cccnc23)C1
624
Cc1nc(-c2ccccc2)cc2nn(CC(=O)Nc3ccc4c(c3)OCO4)c(=O)n12
719

Now, please, on to the next compound.
QUERY: For the compound "Cc1ccsc1CCNC(=O)C1CCN(S(=O)(=O)c2ccc3c(c2)CCCC(=O)N3)CC1" , give its measured RP-LC retention time value.
RESULT: 760
